Origin of measurements: patent US5852033A

System: CHOC5 (MDR)
assay-overview: LAMELLARINS TOXICITY TO RESISTANT (MDR) TUMOR CELL LINE CHOC5 (MTT)
Format: cell-based, chinese hamster
condition-label: Cricetulus griseus, 72 h; CHOC5 (MDR), MTT, three days; read-out: ACTIVITY: IC50
Description: Sensitive and MDR cells were maintained, in logarithmic phase of growth, in Eagle's Minimum Essential Medium, with Earle's Balanced Salts, with non-essential amino acids, with 2.0 mM L-glutamine, without sodium bicarbonate (EMEM/neaa), supplemented with 5% Fetal Calf Serum (FCS), 10^-2 M sodium bicarbonate and 0.1 g/l penicillin G+0.1 g/l streptomycin sulfate. […]
This listing pairs molecules with measured IC50.

molecule: COc1cc(-c2c3c4cc(OC)c(OC(C)=O)cc4oc(=O)c3n3ccc4c(OC(C)=O)c(OC)c(OC)cc4c23)ccc1OC(C)=O [Lamellarin M-triacetate]
IC50 / µg/mL: 2

molecule: COc1ccc(-c2c3n(c4c(=O)oc5cc(O)c(OC)cc5c24)CCc2cc(O)c(OC)cc2-3)cc1O
IC50 / µg/mL: 0.6

molecule: COc1ccc(-c2c3n(c4c(=O)oc5cc(OC(C)=O)c(OC)cc5c24)CCc2c-3cc(OC)c(OC)c2OC)cc1OC [Lamellarin I-acetate]
IC50 / µg/mL: 5

molecule: COc1cc(-c2c3c4cc(OC)c(O)cc4oc(=O)c3n3ccc4c(OC)c(OC)c(OC)cc4c23)ccc1O
IC50 / µg/mL: 10

molecule: COc1cc(-c2c3c4cc(OC)c(OC(C)=O)cc4oc(=O)c3n3ccc4cc(OC(C)=O)c(OC)cc4c23)ccc1OC(C)=O [Lamellarin D-triacetate]
IC50 / µg/mL: 0.04

molecule: COc1cc(-c2c3n(c4c(=O)oc5cc(OC(C)=O)c(OC)cc5c24)CCc2c-3cc(OC)c(OC)c2OC(C)=O)ccc1OC(C)=O [Lamellarin K-triacetate]
IC50 / µg/mL: 0.1

molecule: COc1ccc(-c2c3n(c4c(=O)oc5cc(OC)c(OC)cc5c24)CCc2c-3cc(OC)c(OC)c2OC)cc1OC [Lamellarin I-Methylate]
IC50 / µg/mL: 2.5

molecule: COc1ccc(-c2c3c4cc(OC)c(OC(C)=O)cc4oc(=O)c3n3ccc4cc(OC(C)=O)c(OC)cc4c23)cc1OC(C)=O [Lamellarin N-triacetate]
IC50 / µg/mL: 0.1
